# TESTED SYSTEM: DNA dC->dU-editing enzyme APOBEC-3G (Homo sapiens) (UniProt Q9HC16)
# Sequence (Q9HC16 whole entry, looked up): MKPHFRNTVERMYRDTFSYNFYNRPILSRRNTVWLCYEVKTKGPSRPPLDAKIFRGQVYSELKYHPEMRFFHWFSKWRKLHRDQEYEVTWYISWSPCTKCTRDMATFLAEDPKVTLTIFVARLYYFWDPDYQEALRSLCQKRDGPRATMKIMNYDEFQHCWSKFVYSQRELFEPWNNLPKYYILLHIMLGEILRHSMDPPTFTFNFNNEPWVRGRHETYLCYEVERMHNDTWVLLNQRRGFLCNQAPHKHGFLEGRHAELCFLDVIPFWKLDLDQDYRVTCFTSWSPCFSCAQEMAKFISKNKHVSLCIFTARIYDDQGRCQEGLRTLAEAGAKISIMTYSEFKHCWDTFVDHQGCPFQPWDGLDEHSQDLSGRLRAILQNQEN
# TEST PROTOCOL: qHTS for inhibitors of Vif-A3G interactions: Cherry picks counterscreen;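 as to max response: max response given as percent of control signal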
# CONDITION NOTES: HeLa A3G-eYFP + Vif, eYFP fluorescence, 24 h
The whole screen tested about 2,100 compounds, of which about 1,100 (52%) were called active. Roughly 27% stayed inconclusive and do not appear here. The set was probably picked from earlier hits. The list shows a part of the results.
// label = t if max response is not less than 10%, otherwise f

Here's what some known entries look like.
Problem: Exam item: decide whether the reported max response for Cc1ccccc1NCC(=O)N=Nc1c(O)[nH]c2ccc([N+](=O)[O-])cc12 is at least 10%.
Result: f

Problem: Exam item: decide whether the reported max response for Cc1ccc(F)c(S(=O)(=O)NC(=O)C2(C)CCN2C(=O)Cc2ccc(Cl)cc2Cl)c1 (stereo unspecified) is at least 10%.
Result: t

Problem: Exam item: decide whether the reported max response for CC(/C=C/c1ccc(N(C)C)cc1)=N\N=C(/N)SC1CC(=O)N(c2ccc(C(=O)O)cc2)C1=O (stereo unspecified) is at least 10%.
Result: f

Problem: Exam item: decide whether the reported max response for COc1ccc2nc(NC(=S)NC(=O)c3ccco3)sc2c1 is at least 10%.
Result: f

Problem: Exam item: decide whether the reported max response for Cc1ccc2nc(-c3ccccn3)c(Nc3ccccc3C)n2c1 is at least 10%.
Result: f

More entries:
Problem: Exam item: decide whether the reported max response for O=C(NN=Cc1c(O)ccc2ccccc12)c1ccc2c(c1)OCO2 is at least 10%.
Result: f

Problem: Exam item: decide whether the reported max response for CCN1C(=O)/C(=C/c2ccc(N3CCCC3)cc2)NC1=S is at least 10%.
Result: t

Problem: Exam item: decide whether the reported max response for O=C1c2cccc3c(N4CCCCC4)ccc(c23)C(=O)N1c1ccc(O)cc1 is at least 10%.
Result: t

Problem: Exam item: decide whether the reported max response for c1cncc(-c2nc(NCc3cccs3)c3ccccc3n2)c1 is at least 10%.
Result: f

Problem: Exam item: decide whether the reported max response for COc1ccccc1CNC(=O)c1ccc2nc3[nH]c4ccccc4c3nc2c1 is at least 10%.
Result: f

Problem: Exam item: decide whether the reported max response for COc1cc(/C=C2\C(=N)N3N=CSC3=NC2=O)cc(Br)c1OC(=O)c1ccco1 is at least 10%.
Result: t

----------
Recorded max response, one value per entry.
# TESTED SYSTEM: DNA dC->dU-editing enzyme APOBEC-3G (Homo sapiens) (UniProt Q9HC16)
# TEST PROTOCOL: qHTS for inhibitors of Vif-A3G interactions: Cherry picks counterscreen;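 also: hits raise yellow fluorescence by blocking Vif-driven A3G-eYFP degradation; nearly all actives have a fitted effect of over 70% in size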;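 as to max response: max response given as percent of control signal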
# CONDITION NOTES: HeLa A3G-eYFP + Vif, eYFP fluorescence, 24 h
Hit rate of the full screen: of about 2,100 compounds, about 1,100 (52%) were called active. About 27% were inconclusive and are not listed. The set was probably picked from earlier hits. Some of the results follow.
Your answer is read as %, so omit the unit and give the number.

Worked set:
Summary: COC(=O)c1cc(NC(=O)c2ccccc2)c(=O)oc1/C=C/Nc1ccc(Oc2ccccc2)cc1 , DNA dC->dU-editing enzyme APOBEC-3G (Homo sapiens) (UniProt Q9HC16), max response = 11.8

Summary: CCCCCCc1cc2cc(-c3nnc(-c4ccccc4O)o3)c(=O)oc2cc1O , DNA dC->dU-editing enzyme APOBEC-3G (Homo sapiens) (UniProt Q9HC16), max response = 54.5

Summary: C=CCOC(=O)C1=C(C)Nc2nnnn2C1c1cccs1 (stereo unspecified) , DNA dC->dU-editing enzyme APOBEC-3G (Homo sapiens) (UniProt Q9HC16), max response = -7.35

Summary: COCCCNC(=S)N/N=C/c1cccc(OC)c1O , DNA dC->dU-editing enzyme APOBEC-3G (Homo sapiens) (UniProt Q9HC16), max response = 7.9

Summary: Cn1ccnc1Sc1nc2ccccc2nc1NS(=O)(=O)c1ccccc1 , DNA dC->dU-editing enzyme APOBEC-3G (Homo sapiens) (UniProt Q9HC16), max response = -7.62

Consider the record given below.
Summary: O=C(O)CSc1c2ccccc2cc2ccccc12 , DNA dC->dU-editing enzyme APOBEC-3G (Homo sapiens) (UniProt Q9HC16), max response = -3.73

----------
Recorded Potency, one value per entry.
# TESTED SYSTEM: DNA dC->dU-editing enzyme APOBEC-3G (Homo sapiens) (UniProt Q9HC16)
# TEST PROTOCOL: qHTS for inhibitors of Vif-A3G interactions: Cherry picks counterscreen;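 also: hits raise yellow fluorescence by blocking Vif-driven A3G-eYFP degradation; nearly all actives have a fitted effect of over 70% in size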; also: potency is read from the fitted curve at half-maximal effect
# CONDITION NOTES: HeLa A3G-eYFP + Vif, eYFP fluorescence, 24 h
In all, about 2,100 compounds went through this assay and about 1,100 (52%) were called active. Not shown: some 27% with an inconclusive outcome. So high a share suggests a set chosen from earlier hits. This is one part of the list.

Worked set:
The molecule listed as CCOC(=O)c1ccc(NC(=O)CSc2nc(-c3ccc(OC)cc3)cc(C(F)(F)F)c2C#N)cc1 has a reported Potency of 23.1 µM (active)

The molecule listed as Cc1cc(C(F)(F)F)c(C#N)c(SCC(=O)Nc2nc3ccccc3s2)n1 has a reported Potency of 18.4 µM (active)

The molecule listed as N#C/C(N=Nc1ccccc1O)=N\Nc1ccccc1O has a reported Potency of 16.4 µM (active)

The molecule listed as COc1ccc(C2=NOC(C(=O)NCc3ccc(F)cc3)C2)cc1OC (stereo not drawn) has a reported Potency of 1.12 µM (active)

The molecule listed as CCOC(=O)CCc1ccc(NC(=O)/C=C/c2ccc([N+](=O)[O-])o2)cc1 has a reported Potency of 11.6 µM (active)

The molecule listed as CC(/C=N/NC(=O)c1cccc(F)c1)=C\c1ccccc1 has a reported Potency of 9.94 µM (active)

The molecule listed as CCCN1CCc2c(sc(NC(=O)c3ccc(S(=O)(=O)N(C)c4ccccc4)cc3)c2C(=O)NC)C1 has a reported Potency of 18.4 µM (active)

The molecule listed as COc1cccc(C(=O)N/N=C/C(Br)=C/c2ccccc2)c1 has a reported Potency of 2.23 µM (active)

The molecule listed as O=[N+]([O-])c1ccccc1C=NNC(=S)NN=Cc1ccccc1[N+](=O)[O-] has a reported Potency of 8.86 µM (active)

The molecule listed as COc1ccc(C2=NOC(C(=O)NCc3cccs3)C2)cc1OC (stereo not drawn) has a reported Potency of 7.9 µM (active)

Consider the record given below.
The molecule listed as Cc1coc(NC(=O)CSc2nc(-c3ccncc3)cc(C(F)(F)F)c2C#N)n1 has a reported Potency of 16.4 µM (active)

----------
# TESTED SYSTEM: DNA dC->dU-editing enzyme APOBEC-3G (Homo sapiens) (UniProt Q9HC16)
# TEST PROTOCOL: qHTS for inhibitors of Vif-A3G interactions: Cherry picks counterscreen;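 also: hits raise yellow fluorescence by blocking Vif-driven A3G-eYFP degradation; nearly all actives have a fitted effect of over 70% in size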; also: potency is read from the fitted curve at half-maximal effect
# CONDITION NOTES: HeLa A3G-eYFP + Vif, eYFP fluorescence, 24 h
About 1,100 (52%) of roughly 2,100 compounds were called active. Another 27% or so got no clear call; they are omitted. The set was probably picked from earlier hits. The list shows a part of the results.
METRIC: Potency

Worked set:
The molecule listed as COc1ccccc1C=CC(=O)C=Cc1ccccc1OC has a reported Potency of 6.27 µM (active)

The molecule listed as CCOC(=O)N1CCN(C(=O)c2[nH]c(C(F)(F)F)nc2-c2ccccc2)CC1 has a reported Potency of 15.8 µM (active)

The molecule listed as O=C(Cn1ncc(Cl)c(Cl)c1=O)NC(=O)NC1CCCCC1 has a reported Potency of 14 µM (active)

The molecule listed as O=C(c1[nH]c(C(F)(F)F)nc1-c1ccccc1)N1CCN(c2ccccc2)CC1 has a reported Potency of 3.53 µM (active)

The molecule listed as COc1cc(C(=O)N/N=C/c2ccccn2)cc(OC)c1OC has a reported Potency of 12.5 µM (active)

More entries:
The molecule listed as COc1cc(C(=O)Nc2ccc3c(c2)ncn3C)cc(OC)c1OC has a reported Potency of 7.04 µM (active)

----------
# TESTED SYSTEM: DNA dC->dU-editing enzyme APOBEC-3G (Homo sapiens) (UniProt Q9HC16)
# TEST PROTOCOL: qHTS for inhibitors of Vif-A3G interactions: Cherry picks counterscreen;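 also: hits raise yellow fluorescence by blocking Vif-driven A3G-eYFP degradation; nearly all actives have a fitted effect of over 70% in size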; also: potency is read from the fitted curve at half-maximal effect
# CONDITION NOTES: HeLa A3G-eYFP + Vif (tagged APOBEC3G with the HIV-1 protein that degrades it), eYFP fluorescence, 24 h
Screen size: about 2,100 compounds; about 1,100 (52%) were called active. Another 27% or so got no clear call; they are omitted. The set was probably picked from earlier hits. This is one part of the list.
Recorded Potency, one value per entry.

Worked set:
Summary: CCOC(=O)CCSc1nc(C)cc(C(F)(F)F)c1C#N , DNA dC->dU-editing enzyme APOBEC-3G (Homo sapiens) (UniProt Q9HC16), Potency = 12.5 µM (active)

Summary: COC(=O)Cn1c(C)c(/C=C/c2cc[n+](C)cc2)c2ccccc21 , DNA dC->dU-editing enzyme APOBEC-3G (Homo sapiens) (UniProt Q9HC16), Potency = 9.2 µM (active)

Summary: O=c1[nH]c2ccccc2nc1/C=C(\O)c1cccs1 , DNA dC->dU-editing enzyme APOBEC-3G (Homo sapiens) (UniProt Q9HC16), Potency = 4.61 µM (active)

Consider the record given below.
Summary: N#CC1=C(N)Oc2cc(N)ccc2C1c1cccc(Br)c1 (stereo unspecified) , DNA dC->dU-editing enzyme APOBEC-3G (Homo sapiens) (UniProt Q9HC16), Potency = 0.627 µM (active)
